- Organism: Rattus norvegicus
- method summary: Inhibition of rat recombinant geranylgeranyltransferase type I expressed in Escherichia coli assessed as residual enzyme activity for geranylgeranylation of RhoA at 50 uM incubated for 30 mins in presence of [3H]GGPP by scintillation counting assay relative to control
readout name: Activity (%)
# value in %; strip the unit string

Some compounds with recorded Activity:
1) Cc1ccccc1S(=O)(=O)N1[C@@H](c2ccccc2)C(C(=O)O)=CC[C@H]1c1ccc(Cl)cc1	5.8
2) Cc1ccc(S(=O)(=O)N2C[C@@H](C(=O)O)[C@H](SCc3ccccc3)C[C@H]2c2cccc(Cl)c2)cc1	8.3

From here, focus on the item given below.
Activity reading for Cc1ccccc1S(=O)(=O)N1C[C@@H](C(=O)O)[C@H](Sc2ccccc2)C[C@H]1c1ccc(Cl)cc1 : 7.8

* * *

- Tested on: Jurkat
- method summary: Antiproliferative activity against human Jurkat cells assessed as inhibition of cell proliferation incubated for 72 hrs by CCK8 assay
- Type: functional, cell-based
readout name: GI50

Entry CC(C)(C)[C@@H]1C=C(C(=O)N[C@@H](Cc2ccccc2)C(N)=O)[C@H](c2ccc(Cl)c(Cl)c2)N1S(=O)(=O)c1c(Cl)cccc1Cl ; GI50 = 4.91 to 5.28 µM

# GI50 (compound: Cc1ccccc1S(=O)(=O)N1[C@@H](c2ccc(Cl)c(Cl)c2)C(C(=O)N[C@@H](Cc2ccccc2)C(N)=O)=C[C@H]1C(C)(C)C ) is 5.62 to 6.9 µM

Consider Cc1ccccc1S(=O)(=O)N1[C@@H](c2cccc(Cl)c2)C(CO)=CC[C@H]1c1ccc(Cl)cc1 . Its measured GI50 is 7.5 µM

* * *

- Organism: Rattus norvegicus
- method summary: Inhibition of rat recombinant geranylgeranyltransferase type I expressed in Escherichia coli assessed as residual enzyme activity for geranylgeranylation of K-Ras4B at 50 uM incubated for 30 mins in presence of [3H]GGPP by scintillation counting assay relative to control
Catalogue of Activity readings, one per entry.
// units = %; emit number, no label

Some solved cases for reference:
1. COc1ccc([C@@H]2CC=C(C(C)=O)CN2S(=O)(=O)c2ccccc2C)cc1	77.3
2. Cc1ccc(S(=O)(=O)N2[C@@H](c3cccc(F)c3)C(C(=O)O)=CC[C@H]2c2ccc(F)cc2)cc1	70.1

The recorded Activity for O=C(O)C1=CC[C@@H](c2ccc(Cl)cc2)N(S(=O)(=O)c2ccc(Cl)cc2)[C@H]1c1ccc(F)cc1 is 43.5

// Activity lookup, molecule = COc1ccc([C@@H]2C[C@@H](Sc3ccc(Cl)cc3)[C@H](C(=O)O)CN2S(=O)(=O)c2ccc(C)cc2)cc1 , result: 55.3

Per the record, CCCCCCS[C@@H]1C[C@@H](c2ccc(C)cc2)N(S(C)(=O)=O)C[C@H]1C(=O)O has Activity of 83.1

Measured Activity of Cc1ccc(S(=O)(=O)N2[C@@H](c3ccc(Br)cc3)C(C(=O)O)=CC[C@H]2c2ccc(C(C)C)cc2)cc1 : 83.7

The molecule identified as CCCCCS[C@@H]1C[C@@H](c2ccccc2)N(S(=O)(=O)c2ccc(C)cc2)C[C@H]1C(=O)O registered its Activity at 77.2

The value of Activity measured for the molecule Cc1ccc(S(=O)(=O)N2[C@@H](c3cccc(C)c3)C(C(=O)O)=CC[C@H]2c2cccs2)cc1 turned out to be 68.9
